PROTOCOL_TEXT: reducers of endogenous Her2 protein level, primary screen, SKBR3 breast tumor cells, AlphaScreen, ATP viability (AID 461);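 further: percent of carrier control wells set as 100% viability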
STUDY_CONDITIONS: 18-24 h, measured here: SKBR3 viability, ATP luminescence, at 10 µM
VALUE_TYPE: viability (%)
Quick reminder: number only, in %, skip the unit.

Worked examples, 4 molecules total:
INSERT INTO assay_data (molecule, observed_result) VALUES
  ('O=C(COC(=O)c1ccco1)NCc1cccs1', 112),
  ('CCc1ccc(NS(=O)(=O)c2ccc3[nH]cc(C(=O)N4CCCCC4)c(=O)c3c2)cc1', 124),
  ('O=C(C1CCC(CNS(=O)(=O)c2cccc3cccnc23)CC1)N1CCCC1 (stereo not drawn)', 98.5),
  ('COc1ccccc1C(O)P(=O)(OC(C)C)c1ccc(N(C)C)cc1 (stereo not drawn)', 101);

# context switch: different molecule, same viability
Looking up CC(=O)c1ccc2c3c(cccc13)C(=O)N(c1c(C)nn(C)c1C)C2=O , I found its viability recorded as 99

----------
PROTOCOL_TEXT: growth suppression of yeast trafficking mutant, preliminary HTS, modulators of trafficking downstream of Golgi apparatus project, 1536-format plate, OD 615 nm (AID 637)
STUDY_CONDITIONS: yeast transport mutant growth, absorbance 615 nm, 18 h; stronger effect = higher value
# key: entry, value: inhibition
Please respond with the number in % and leave the unit unwritten.

In the examples that follow, each entry is paired with its recorded inhibition.
INSERT INTO measurements (compound, value_type, observed_result) VALUES
  ('c1ccc2c(-c3nc(C4CCCCC4)no3)cc(-c3ccncc3)nc2c1', 'inhibition', 8.23),
  ('COC(=O)Cc1c(C)nc2nc[nH]n2c1=O', 'inhibition', -2.91),
  ('Cc1cc(NC(=O)CCCC(=O)Nc2ccc(F)cc2)no1', 'inhibition', -1.48),
  ('COc1ccccc1NC(=O)CSc1nnc(Cn2nnc(-c3ccccc3)n2)n1-c1ccccc1', 'inhibition', -1.45);

The compound listed as COc1ccc(S(=O)(=O)NCCOc2ccccc2)cc1OC has a reported inhibition of 2.3

Entry Cc1cc(C(=O)Nc2cccnc2)no1 , inhibition reported as -2.18

Noted for COc1cccc(C(=O)Nc2ccc(NC(=O)C(C)(C)C)cn2)c1 : its inhibition reads -0.48

Lookup result for O=C(Nc1nc(-c2ccccc2)cs1)C1CCCO1 (stereo unspecified) ; measured inhibition: -2.18

Reported inhibition ( CC(=O)c1c(C)[nH]c(C(=O)OCc2nnc(-c3ccccc3)o2)c1C ) = 26.7

According to the records, this compound CC1(C)CN=C(N2CCN(c3ncnc4sc5c(c34)CCCC5)CC2)S1 displays inhibition of 0.83

inhibition in this record for O=C(CN1CCN(c2nc(-c3ccc(Cl)cc3)cs2)CC1)NCc1ccco1 : -2.18

----------
# viability per entry
PROTOCOL_TEXT: growth inhibitors of H69AR lung tumor, primary screen, human, duplicate replicates (AID 580);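 further: 100% = mean luminescence of untreated wells and 0% = no signal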
STUDY_CONDITIONS: H69AR lung tumor cells viability, ATP luminescence, 72 h; at 10 µM; stronger effect = lower value
State the answer as a number, implicitly in %.

Below, each entry is followed by its recorded viability result.
INSERT INTO results (compound, observed_result) VALUES
  ('O=C(CCCCn1c(=O)c2ccccc2n(Cc2ccc(Cl)cc2)c1=O)NCc1ccco1', 29.6),
  ('CCCCNC(=O)OCCNC(=O)NC', 98.1),
  ('Cc1c(C)c2cc(Cl)c(O)c(CN3CCCCC3)c2oc1=O', 99),
  ('CN(Cc1ccccc1)C(=O)c1ccccc1NC(=O)c1ccco1', 101),
  ('O=C(Cn1ccc2ccccc2c1=O)NCCC(=O)N1CCN(C2CCCCC2)CC1', 104);

Given item OCCNC1=NCCN1 , the value recorded as its viability is 96.8

Cc1noc(C)c1COc1cccc(C(=O)Oc2ccc3c(c2)OCO3)c1 yielded viability of 79.5

Lookup result for COC(=O)Cn1cc(C(=O)c2cccs2)c2ccccc21 ; measured viability: 96.4

Lab book: viability of CC(C)c1ccc(-c2nc(N3CCOCC3)[nH]c(=O)c2C#N)cc1 noted as 98

The compound listed as Cc1ccc(C(=O)/C=C/Nc2cccc(O)c2)cc1 has a reported viability of 85.1

Noted for CC1CCN(CCC(=O)Nc2ccc(Br)cc2)CC1 : its viability reads 89.2

Item: CCC(c1nnc(SCC(=O)Nc2ccc(C(=O)Nc3ccccc3OC)cc2)o1)N(C)C (stereo unspecified) | viability: 107

Value of viability reported for the compound CCO/C([O-])=N/c1c[n+](N2CCOCC2)no1 is 86.7

Lookup result for CCCOc1ccc(N2C(=O)CC(SCCN)C2=O)cc1 (stereo unspecified) ; measured viability: 108

The recorded viability for entry COc1ccccc1CC(=O)NCc1ccc2c(c1)OCO2 equals 93.5

viability reported for this compound O=C(NC1=NCCS1)c1ccc2c(c1)C(=O)N(Cc1ccco1)C2=O : 93.6

Lab note: CCCCn1cnc2c1c(=O)n(C)c(=O)n2C gave viability of 100

Lab note: CC1(C)CC(=O)C2=C(C1)N(Cc1ccco1)C(=O)C2(NC(=O)C1CCCCC1)C(F)(F)F (stereo unspecified) gave viability of 92.1

Per the records, this compound ( CCCCN1C[C@H](O)[C@@H](O)[C@H](O)[C@H]1CO ) has viability equal to 96.5

Per the record, CCN(CC)c1nc2cc(OC)ccc2cc1C#N has viability of 68.2

Reported viability ( CC1Cc2ccccc2N1C(=O)COC(=O)Cn1nnc(-c2ccccc2)n1 (stereo unspecified) ) = 81

Recorded result, O=C(O)CCc1ccc(-c2ccccc2)n1CC(=O)O , viability: 93

get_value(item= CCn1nnnc1SCC(=O)N1c2ccccc2CCc2ccccc21 , readout=viability) returns 86.7

# compound Cn1cc(C(=O)NC2CCCCCCC2)c(=O)c2cc(S(=O)(=O)N3CCCC3)ccc21 ; its viability = 90.9

So for CC(C)(C)OC(=O)N1CC=C2C(C#N)=C(N)C(C#N)(C#N)[C@H](c3cccnc3)[C@H]2C1 , the logged viability turned out to be 86.3

----------
PROTOCOL_TEXT: growth suppression of yeast trafficking mutant, preliminary HTS, modulators of trafficking downstream of Golgi apparatus project, 1536-format plate, OD 615 nm (AID 637)
STUDY_CONDITIONS: yeast transport mutant growth, absorbance 615 nm, 18 h
Calls of active or inactive are those of the source. Cut-off read from the data, not from the text of the source: active = inhibition above about 30%; inactive = the rest.
Parameter call: string, one of active, inactive

Reference set (5 entries):
INSERT INTO assay_data (compound, class_name) VALUES
  ('Cn1cccc1-c1nc2ccc(NC(=O)c3ccco3)cc2[nH]1', 'inactive'),
  ('COc1ccc(CC(=O)Nc2c3c(nn2-c2cccc(Cl)c2)CS(=O)C3)cc1 (stereo not given)', 'inactive'),
  ('CC(=O)c1cccc(NC(=O)NCc2ccccn2)c1', 'inactive'),
  ('COc1ccccc1N1CCN(C(=O)C2CC=CCC2C(=O)O)CC1 (stereo not given)', 'inactive'),
  ('O=c1cc(C(F)F)oc2c1ccc1ccccc12', 'inactive');

Exercise: Please let me know the test result on file for COC(=O)c1ccccc1NC(=O)C1CCN(S(=O)(=O)c2cc(C)ccc2OC)CC1 .
Solution: inactive

Exercise: Please state the recorded outcome for this compound: N=c1nc(N2CCCCC2)cc(N)n1O
Solution: inactive

Exercise: Fill in: this test's call for COc1cccc(-n2nnc3c(=O)n(Cc4cccc(F)c4)cnc32)c1 is ___
Solution: inactive

----------
PROTOCOL_TEXT: growth inhibitors of H69AR lung tumor, primary screen, human, duplicate replicates (AID 580);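 further: 100% = mean luminescence of untreated wells and 0% = no signal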
STUDY_CONDITIONS: H69AR lung tumor cells viability, ATP luminescence, 72 h; at 10 µM; stronger effect = lower value
VALUE_TYPE: viability (%)
Report the value in % with no unit label.

Illustrative cases are given below, each with its answer.
INSERT INTO assay_data (compound, value_type, quantity_unit, observed_result) VALUES
  ('OC(CN1CCN(c2ccccc2)CC1)c1ccc2c(c1)CCN2 (stereo unspecified)', 'viability', '%', 69.5),
  ('Cc1cccc(-n2nnnc2SCc2csc(-c3ccccc3)n2)c1', 'viability', '%', 93.9),
  ('COc1cccc(-n2nnc3c(=O)n(Cc4cccc(F)c4)cnc32)c1', 'viability', '%', 99.9);

Lookup result for COc1cc(CN2CCSCC2)cc(OC)c1OC ; measured viability: 109

So for O=C(c1ccco1)N1CCN(CC2CC3C=CC2C3)CC1 (stereo unspecified) , the logged viability turned out to be 95.8

viability reported for this compound CS(=O)(=O)NCc1nnc(SCC(=O)NC2CCCCC2)n1-c1ccc(F)cc1 : 97.6

----------
PROTOCOL_TEXT: growth inhibitors of H69AR lung tumor, primary screen, human, duplicate replicates (AID 580);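 further: 100% = mean luminescence of untreated wells and 0% = no signal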
STUDY_CONDITIONS: H69AR lung tumor cells viability, ATP luminescence, 72 h; at 10 µM; stronger effect = lower value
VALUE_TYPE: viability (%)
Write the answer as a number in %, unit excluded.

For C=CCn1c(=O)[nH]c2cc(C(=O)N3CCN(c4ccc(C(C)=O)cc4)CC3)ccc2c1=O the molecule record lists viability as 92.4

Documented viability of CCOC(=O)c1[nH]c(CSc2nnc(-c3ccncc3)n2CCOC)c(C(=O)OCC)c1C : 94.8

Recorded viability (molecule CCOC(=O)C1CCCN(C(=O)c2cccs2)C1 (stereo not given) ): 98.3

In plain terms, Cc1ccc(Cn2nnnc2CN2CCC(O)(c3ccccc3F)CC2)cc1 has a documented viability of 83.1

Reported viability of N#C[C@@H]1[C@@H]2C(=O)N(c3ccc4c(c3)OCCO4)C(=O)[C@@H]2C2c3ccccc3C=CN21 (stereo not given in full) : 92.8

Attribution: PubChem BioAssay
